System: sugar beet
Experiment: Test B pre/postemergence sugar beet
Format: in vivo, Beta vulgaris
Details: Rate 500 g/ha, Postemergence; scale 0 to 10, 0 no effect, 10 complete control
Measured Sugarbeets plant response rating, listed per entry.
Enter a number only.

Qu. What does the data say about its Sugarbeets plant response rating? Entry: "CC(C)N(C(=O)n1oc(=O)n(-c2cccnc2)c1=O)c1ccc(F)cc1"
Ans. 0

----------
Tested on: morningglory
Assay: Test B pre/postemergence morningglory
Type: in vivo, Ipomoea hederacea
Settings: Rate 125 g/ha, Postemergence; scale 0 to 10
reported_endpoint: Morningglory plant response rating
Enter a number only.

Example compounds with recorded Morningglory plant response rating:
{"query_smiles": "CCc1ccc(N(C(=O)n2oc(=O)n(-c3ccccc3C)c2=O)C(C)C)cc1", "test_system": "morningglory", "Morningglory plant response rating": 2}
{"query_smiles": "CC(C)N(C(=O)n1oc(=O)n(CC=Cc2ccccc2)c1=O)c1ccc(F)cc1", "test_system": "morningglory", "Morningglory plant response rating": 2}
{"query_smiles": "CC(C)N(C(=O)n1oc(=O)n(-c2ccc(OC(F)(F)F)cc2)c1=O)c1ccc(F)cc1", "test_system": "morningglory", "Morningglory plant response rating": 5}

Here is the next item to consider.
Qu. What does the data say about its Morningglory plant response rating? Entry: "Cc1ccccc1N(C(=O)n1oc(=O)n(-c2ccccc2C)c1=O)C(C)C"
Ans. 4

----------
Measured Giant foxtail plant response rating, listed per entry.
System: giant foxtail
Experiment: Test B pre/postemergence giant foxtail
Type: in vivo, Setaria faberii
Conditions: Preemergence, Rate 31 g/ha; visual rating, scale 0 to 10 (0 no effect, 10 complete control)
Method: […] At the same time, these crop and weed species were also treated with postemergence applications of test chemicals formulated in the same manner. […] Treated plants and controls were maintained in a greenhouse for twelve to sixteen days, after which all species were compared to controls and visually evaluated. […]

Qu. What does the data say about its Giant foxtail plant response rating? Entry: "COc1ccccc1-n1c(=O)on(C(=O)N(c2ccc(F)cc2)C(C)C)c1=O"
Ans. 2

Qu. What do you get for "CCN(C(=O)n1oc(=O)n(-c2ccccc2OC)c1=O)C1CCCCC1" ?
Ans. 0

Qu. What do you get for "COc1ccc(-n2c(=O)on(C(=O)N(c3ccc(F)cc3F)C(C)C)c2=O)c(OC)c1" ?
Ans. 1

Qu. What do you get for "COc1ccccc1-n1c(=O)on(C(=O)N(c2ccc(F)cc2F)C(C)C)c1=O" ?
Ans. 1

----------
System: rape
Assay: Test B pre/postemergence rape
Type: in vivo, Brassica napus
Conditions: Preemergence, Rate 250 g/ha; scale of 0 to 10 where 0 is no effect and 10 is complete control
reported_endpoint: Rape plant response rating
Enter a number only.

{"compound": "CCOC(=O)C=CCn1c(=O)on(C(=O)N(c2ccc(F)cc2)C(C)C)c1=O", "Rape plant response rating": 0}
{"compound": "CCCCc1ccc(N(C(=O)n2oc(=O)n(-c3ccccc3C)c2=O)C(C)C)cc1", "Rape plant response rating": 0}
{"compound": "CCOc1nc(C(F)(F)F)c(Cn2c(=O)on(C(=O)N(c3ccccc3)C(C)C)c2=O)s1", "Rape plant response rating": 0}
{"compound": "CC(C)N(C(=O)n1oc(=O)n(C2CC2)c1=O)c1ccc(F)cc1", "Rape plant response rating": 10}
{"compound": "COC(=O)CCCn1c(=O)on(C(=O)N(c2ccc(F)cc2)C(C)C)c1=O", "Rape plant response rating": 5}
{"compound": "CON=C(Cn1c(=O)on(C(=O)N(c2ccc(F)cc2)C(C)C)c1=O)C(F)(F)F", "Rape plant response rating": 8}
{"compound": "COCn1c(=O)on(C(=O)N(c2ccc(F)cc2)C(C)C)c1=O", "Rape plant response rating": 8}
{"compound": "CC(C)N(C(=O)n1oc(=O)n(C2CCCO2)c1=O)c1ccc(F)cc1 (stereo not shown)", "Rape plant response rating": 0}
{"compound": "CCOc1nc(C(F)(F)F)c(Cn2c(=O)on(C(=O)N(c3ccc(F)cc3)C(C)C)c2=O)s1", "Rape plant response rating": 0}
{"compound": "CCN(C(=O)n1oc(=O)n(Cc2ccco2)c1=O)C1CCCCC1", "Rape plant response rating": 0}

Qu. What does the data say about its Rape plant response rating? Entry: "Cc1ccccc1N(C(=O)n1oc(=O)n(-c2ccccc2C)c1=O)C(C)C"
Ans. 0

Qu. What do you get for "CC(C)N(C(=O)n1oc(=O)n(CC(C)(C)C)c1=O)c1ccc(F)cc1" ?
Ans. 10

Qu. What do you get for "CCN(CC)C(=O)n1oc(=O)n(-c2ccccc2C)c1=O" ?
Ans. 0

The values you see were collected from patent US6737383B1.
